assay: primary screen for activators of insulin secretion dependent on glucose, INS-1E cells, GLuc reporter luminescence (AID 743287); conditions: INS-1E GLuc reporter insulin secretion, 2-3 h, at 16.6 µM, hits give high values;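 note: 0% = median of neutral control wells and 100% = median of IBMX positive control wells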
In all, about 370,000 compounds went through this assay and about 2,300 (0.62%) were called active. Many of the other results were omitted from the sample, so actives are more common in it than they were.
Provide the reported activation of each item.
Give bare numbers, in %.

The cases that follow already have their activation on record.
molecule: CCC1OC(c2ccc([N+](=O)[O-])cc2)=Nc2ccccc21 (stereo not given)
units: %
reported: 0.826
//
molecule: COc1ccc(-c2cc(NC=O)c3ncc(-c4ccccc4)n3c2)cc1OC
units: %
reported: 2.43
//
molecule: CCc1n[nH]c(=S)n1/N=C/c1c[nH]c2ccc(Br)cc12
units: %
reported: 6.23
//
molecule: O=C1NCCOCc2cn(nn2)CC[C@@H]1Cc1ccccc1
units: %
reported: 9.64
//
molecule: CNC[C@H]1Oc2ccc(NC(=O)CCC(F)(F)F)cc2C(=O)N([C@@H](C)CO)C[C@H]1C
units: %
reported: 4.67
//
molecule: O=C(Nc1ccc(F)cc1)N1CC(=O)N2[C@H](CO)[C@H](c3ccc(C#Cc4ccccc4)cc3)[C@H]2C1
units: %
reported: -21.6
//
molecule: C=CCOc1ccc(/C=N/NC(=O)C(C)Sc2ccccn2)cc1OCC (stereo not given)
units: %
reported: 26.6
//
molecule: C[C@H]1CN([C@@H](C)CO)C(=O)c2c(c3ccccc3n2C)-c2ccccc2CO[C@@H]1CN(C)C(=O)Nc1ccnc(N2CCOCC2)c1
units: %
reported: -10.3

// for each molecule below, give its activation
1. CO[C@@H]1CN(C)C(=O)c2cc(NC(=O)c3cccc(Oc4ccccc4)c3)ccc2OC[C@H](C)NC[C@@H]1C
2. Cc1ccccc1NC(=O)COc1cccc2c1CCNC2=O
3. COc1ccc(-c2nn3c(-c4ccccc4)nnc3s2)cc1OC
4. Cc1ccc(C(C)C)cc1OCCN1CCCC1

1: -6.99; 2: 23.1; 3: 140; 4: 12.9

// for each molecule below, give its activation
1. CN1C(=O)c2cc(NC(=O)c3ccno3)ccc2OC[C@H]2O[C@@H](CC(=O)NCC(F)(F)F)CC[C@@H]21
2. COc1ccccc1CCn1cnc(-c2ccccc2)c1C(C)C
3. C#CC(CCN1CCCCC1)(OC)c1ccccc1 (stereo not given)
4. CC1CN(Cc2ccco2)C(=S)N(c2ccccc2)C1=O (stereo not given)
5. CC=Cc1ccc2n(c1=O)C[C@H]1[C@H](CO)[C@@H](C(=O)NC3CCCC3)[C@@H]2N1C(=O)c1cnccn1 (mixture of isomers)

19.2
40.3
17.7
10.7
3.54

// for each molecule below, give its activation
1. CN(C)CC(=O)N[C@@H]1CC[C@H](CCn2cc(C3CCCC3)nn2)O[C@H]1CO
2. CCSc1ncnc2c(C#N)c3n(c12)CCCCC3
3. C[C@H](CO)N1C[C@H](C)[C@@H](CN(C)CC2CC2)Oc2ccc(NS(=O)(=O)c3cn(C)cn3)cc2CC1=O

-11.3
47.4
9.55

###

experiment: primary screen for activators of insulin secretion dependent on glucose, INS-1E cells, GLuc reporter luminescence (AID 743287); conditions: INS-1E GLuc reporter insulin secretion, 2-3 h, at 16.6 µM, hits give high values
About 2,300 (0.62%) of roughly 370,000 compounds were called active. Only a selection was taken, and actives are over-represented in it overall.
Provide the reported activation of each item.
One number for each entry, in %.

compound: O=C(C[C@H]1CC[C@H](NC(=O)c2ccncc2)[C@H](CO)O1)Nc1ccccc1
activation (%): 22

// for each compound below, give its activation
1. CCOc1ccc(C(C)NC(=O)CN2C(=O)NC3(CCCCC3)C2=O)cc1OCC (centres undefined)
2. Cc1ccc(COC(=O)CN2C(=O)NC3(CCCC3)C2=O)cc1
3. CO[C@H]1CN(C)C(=O)c2ccc(NC(=O)c3cc(C)on3)cc2OC[C@@H](C)NC[C@@H]1C

1. 5.62
2. 6.93
3. 14.3

###

experiment: primary screen for activators of insulin secretion dependent on glucose, INS-1E cells, GLuc reporter luminescence (AID 743287); details: INS-1E GLuc reporter insulin secretion, 2-3 h, at 16.6 µM, hits give high values;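 note: 0% = median of neutral control wells and 100% = median of IBMX positive control wells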
The whole screen tested about 370,000 compounds, of which about 2,300 (0.62%) were called active. This is one part of a sample in which actives are shown more often than they occur.
Provide the reported activation of each item.
Numbers only, in %.

// for each molecule below, give its activation
1. COc1cccc(NC(=O)CSc2nnc(Cc3ccc(OC)c(OC)c3)o2)c1
2. CCc1nc2c(OCc3ccccc3)cccn2c1N(C)C(=O)c1ccco1
3. Cc1ccc(NC(=O)CSc2nnc(COc3ccccc3C)o2)cc1
4. CCc1nc2c(OCc3ccc(F)c(F)c3)cccn2c1N(C)C(=O)c1ccco1
5. CC(C)C#Cc1ccc2c(c1)O[C@@H](CN(C)C(=O)C1CCC1)[C@@H](C)CN([C@@H](C)CO)S2(=O)=O
6. COc1cccc2cc(C(=O)NCc3ccc(C)cc3)c(=N)oc12
7. COc1cccc2cc(-c3cc(=O)oc4cc(C)c(O)cc34)oc12

1. 37.6
2. 17.3
3. 6.85
4. -1.95
5. -2.35
6. 12.3
7. 78.5

###

test: primary screen for activators of insulin secretion dependent on glucose, INS-1E cells, GLuc reporter luminescence (AID 743287); settings: INS-1E GLuc reporter insulin secretion, 2-3 h, at 16.6 µM, hits give high values;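 note: 0% = median of neutral control wells and 100% = median of IBMX positive control wells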
In all, about 370,000 compounds went through this assay and about 2,300 (0.62%) were called active. The sample holds actives, similar compounds and a random draw of the others, so the mix is not that of the screen.
Provide the reported activation of each item.
Give bare numbers, in %.

The cases that follow already have their activation on record.
compound: CNC[C@@H]1Oc2ccc(NC(C)=O)cc2CC(=O)N(C)C[C@@H]1C
activation (%): 3.12

compound: C[C@H](NC(=O)[C@@H]1[C@@H](CO)[C@@H]2Cn3c(ccc(-c4cccc(F)c4)c3=O)[C@@H]2N1C)c1ccccc1
activation (%): -1.52

// for each compound below, give its activation
1. CCN(CC)S(=O)(=O)c1ccc2nc(COC(=O)c3n[nH]c4ccccc34)[nH]c2c1
2. COc1ccc(/C=C/C(=O)Nc2ccc(C34CC5CC(CC(O)(C5)C3)C4)cc2)cc1OC
3. O=C(C[C@H]1CC[C@H](NC(=O)CCN2CCCCC2)[C@@H](CO)O1)Nc1ccccc1
4. CN1C(=O)c2cc(NC(=O)C3CCC3)ccc2OC[C@@H]2O[C@@H](CC(=O)NCc3ccccc3F)CC[C@@H]21

[57.7, 11.4, 33.8, 19.7]

// for each compound below, give its activation
1. CCn1c(CNC(=O)c2ccco2)nnc1SCC(=O)Nc1cccc(F)c1
2. Cc1ccccc1-c1ccc([C@H]2[C@H](CO)N3C(=O)CN(C(=O)c4cccnc4)C[C@@H]23)cc1
3. COc1ccc(COC(=O)c2n[nH]c3ccccc23)cc1F
4. COc1ccc(S(=O)(=O)N(C)CC(=O)Nc2ccc3c(c2)OCCO3)cc1OC

-2.18
4.01
-12.2
79.4

// for each compound below, give its activation
1. CCCNC(=O)N1CCC2(CC1)CN(C(=O)c1cccnc1)[C@@H](CO)c1[nH]c3cc(OC)ccc3c12
2. COc1ccc(S(=O)(=O)N(C)C)cc1NC(=O)COC(=O)c1n[nH]c2ccccc12
3. CN(CC(=O)Nc1ccc(C(N)=O)cc1)S(=O)(=O)c1ccc2c(c1)OCCO2
4. Cc1ccc(C)c(NC(=O)C2CCCN2C(=O)OC(C)(C)C)c1 (stereo not given)
5. COCC(=O)N(C)C[C@@H]1Oc2cc(C#CC3CC3)ccc2S(=O)(=O)N([C@H](C)CO)C[C@H]1C
6. Cc1cccc(C)c1NC(=O)C1CCCN1C(=O)OC(C)(C)C (stereo not given)

1: 20.9; 2: -5.72; 3: -7.44; 4: -3.08; 5: 5.41; 6: 2.21

// for each compound below, give its activation
1. COc1ccc(Cl)cc1NC(=O)CN(C)CC(=O)Nc1ccc2c(c1)OCO2
2. CCC[C@H]1CCCC/C=C\CCCC(=O)OCCN1C(=O)OC(C)(C)C
3. CCn1c(SCC(=O)Nc2cccc(F)c2)nnc1-c1cc2cc(Br)ccc2o1
4. COc1ccc(S(=O)(=O)N2CCOCC2)cc1NC(=O)CSc1ncnc2ccccc12

[-15.8, 66.4, 85.4, 14.3]

###

assay: primary screen for activators of insulin secretion dependent on glucose, INS-1E cells, GLuc reporter luminescence (AID 743287); conditions: INS-1E GLuc reporter insulin secretion, 2-3 h, at 16.6 µM;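 note: 0% = median of neutral control wells and 100% = median of IBMX positive control wells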
About 2,300 (0.62%) of roughly 370,000 compounds were called active.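 Rule for the calls: active = lowest replicate activation of at least 40%, so every replicate reaches that level; inactive = the rest.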 The entries come from a sample that favours actives as a whole.
Hi there, use one of these labels in your reply, thanks! active, inactive

Illustrative cases are given below, each with its answer.
chemical_structure: Cc1nc2ccccn2c(=O)c1NC(=O)c1cccs1
assigned_label: inactive

chemical_structure: CO[C@H]1CN(C)C(=O)c2ccc(NC(=O)C3CCCC3)cc2OC[C@@H](C)NC[C@@H]1C
assigned_label: inactive

chemical_structure: NC(=O)c1oc2ccccc2c1NC(=O)Cc1ccccc1
assigned_label: inactive

chemical_structure: NS(=O)(=O)c1ccc(CNC(=O)c2cc(S(=O)(=O)N3CCOCC3)ccc2N2CCCC2)cc1
assigned_label: active

Consider the record given below.
// outcome(item) with item = "COc1ccccc1NC(=O)N1CCCCN2[C@@H](CO)[C@@H](c3ccc(C#Cc4ccccc4)cc3)[C@@H]2C1" inactive
